test system: platelet aggregation; assay: Antithrombotic effect: collagen-induced platelet aggregation (Born and Cross method) in platelet-rich plasma; format: cell-based; conditions: Homo sapiens, 10 minutes preincubation at 37° C., 50% change in optical density, read-out: Inhibition of platelet aggregation EC50
test-readout: EC50 (nM)

The examples below pair each entry with its known result.
CC(=O)N(C[C@@H]1C[C@@H](CC(=O)O)C(=O)N1CCCc1ccccc1)c1ccc(-c2ccc(C(=N)N)cc2)cc1 :: 2000
N=C(N)c1ccc(-c2ccc(N3CC(CP(=O)(O)O)CC3=O)cc2)cc1 (stereo not drawn) :: 1000
N=C(N)c1cccc(C(=O)c2ccc(OC[C@@H]3C[C@@H](CC(=O)O)C(=O)N3CCCc3ccccc3)cc2)c1 :: 12000
N=C(N)c1ccc(-c2ccc(OC[C@@H]3C[C@@H](CC(=O)O)C(=O)N3c3ccccc3)cc2)cc1 :: 170

1 = CN(C)S(=O)(=O)N1C[C@H](CC(=O)O)C[C@H]1COc1ccc(-c2ccc(C(=N)N)cc2)cc1
2 = N=C(N)c1ccc(-c2ccc(OC[C@H]3CNC(=O)[C@@H]3CC(=O)O)cc2)cc1 (relative stereo)
I'd appreciate it if you could identify which of 1 and 2 has the greater EC50. To answer, give the label that identifies your chosen option.
2
